These measurements were taken from PubChem BioAssay AID1626.

assay: M. tuberculosis H37Rv growth inhibitors, H37Rv strain (AID 1626);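 note: bacteria incubated seven days before Alamar blue readout; 0% = bacteria only wells and 100% = bacteria with antibiotic wells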
measurement_context: active compounds read high, concentration not given here
Hit rate of the full screen: of about 220,000 compounds, about 2,000 (0.91%) were called active. Another 2% or so got no clear call; they are omitted. Not all results are given here. Measured potencies and affinities stand elsewhere.
measurement_name: inhibition (%)
Enter your answer as a number in %; do not include the unit.

Solved entries (count: 5):
O=C(Nc1ccc(S(=O)(=O)Nc2nccs2)cc1)C1CC(=O)N(c2ccccc2)C1 (stereo not given) : -6.74
Brc1ccccc1-c1cnco1 : -1.43
COc1cc2c(cc1OC)C(C)N(C(=O)c1cc3ccccc3o1)CC2 (stereo not given) : 3.79
CC/C=C\[C@H](O)[C@H](O)C1=C(C)C(=O)[C@]2(O1)C(=O)N[C@@](OC)(C(=O)c1ccccc1)C2O (stereo not given in full) : -6.03
Cc1ccc(S(=O)(=O)NCC(=O)N(CC(=O)NCC2CCCO2)Cc2ccco2)cc1 (stereo not given) : 11.1

Request: Give the reported value of inhibition for this record: CCN(CC)C(=O)C1=C(C)Nc2ncnn2C1c1cccnc1 (stereo not given)
Response: -0.97

Request: Give the reported value of inhibition for this record: "CC(=O)c1cc(-c2ccc(F)cc2)n(CCC(=O)Nc2cc(C)[nH]n2)c1C"
Response: 5.45

Request: Give the reported value of inhibition for this record: "CCOC(=O)c1c[nH]n(-c2ccc(C)cc2)c1=O"
Response: -7.4

Request: Give the reported value of inhibition for this record: "Nc1c(N(CCO)C(=O)COc2ccc(Cl)cc2)c(=O)[nH]c(=O)n1Cc1ccccc1"
Response: -6.77

Request: Give the reported value of inhibition for this record: "Cc1ccc(Oc2ccc(NC(=O)CCC(=O)OCC(=O)c3cccs3)cc2)cc1C"
Response: -2.17
